Quick reference for Percent Control among some compounds
System: MET
Details: Compound Concentration (nM):1000;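 further: KINOMEscan scanMAX binding as percent activity remaining versus control; lower means stronger binding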
Write the numeric value and follow it with the unit.

Record excerpt, results attached:
- CN(C)c1cc2c(Nc3ccc4c(cnn4Cc4ccccc4)c3)ncnc2cn1 [GW282974X]: 94%
- Cl.O=C(Nc1ccc(Oc2ccc3[nH]c(NC(=O)c4ccccc4)nc3c2)cc1)Nc1cc(C(F)(F)F)ccc1F [GW709042A]: 64%
- CN1CCN(C(=O)c2ccc(NC(=O)Nc3ccc(N(C)c4ccnc(Nc5ccc(CS(C)(=O)=O)cc5)n4)cc3)cc2)CC1.Cl [GW830263A]: 8.8%

Challenge: Quick one: Percent Control for NS(=O)(=O)c1ccc(N/N=C2\C(=O)Nc3ccc(C(=O)NCCc4c[nH]cn4)cc32)cc1 [GW300660X] ?
Response given: 100%

Challenge: Param item: COc1ccc2[nH]c3c4[nH]c5ccc(OC)cc5c4c4c(c3c2c1)C(=O)NC4=O [GW296115X]
Response given: 78%

###

System: INSRR
Settings: Compound Concentration (nM):1000
measurementName: Percent Control (%)
Give the value, in units of %, as a plain number.

Record excerpt, results attached:
- CN(C)CCNC(=O)Nc1ccc(N(C)c2ccnc(Nc3ccc(CS(C)(=O)=O)cc3)n2)cc1.Cl [GW830900A]: 99
- CN(C)c1cc2c(Nc3ccc4c(cnn4Cc4ccccc4)c3)ncnc2cn1 [GW282974X]: 100
- COc1cc2ncnc(Nc3ccc4c(cnn4Cc4ccccc4)c3)c2cc1OC.Cl [GW282449A]: 100
- CCS(=O)(=O)c1ccc(OC)c(Nc2ncc(-c3cccc(F)c3)o2)c1 [GW621970X]: 100

Challenge: Quick one: Percent Control for Cl.c1ccc(Cc2nc3ccc(Nc4ncnc5ccccc45)cc3[nH]2)cc1 [GR269666A] ?
Response given: 100

Challenge: Param item: Cl.O=S1CCN(Cc2ccc(-c3ccc4ncnc(Nc5ccc(OCc6ccccc6)c(F)c5)c4c3)o2)CC1 [GW576924A]
Response given: 100

Challenge: Param item: CCn1c(-c2nonc2N)nc2c(C#CC(C)(C)O)nc(OCCNC)cc21.Cl [GSK949675]
Response given: 100

Challenge: Param item: COC(=O)Nc1nc2ccc(Oc3ccc(NC(=O)Nc4cc(C(F)(F)F)ccc4F)cc3)cc2s1.Cl [GW693917A]
Response given: 100

Challenge: Param item: NS(=O)(=O)c1ccc(N/N=C2\C(=O)Nc3ccc(-c4cnco4)cc32)cc1 [GW276655]
Response given: 83

Challenge: Param item: CC(C)COC(=O)c1ccc2c(c1)/C(=C/Nc1ccc(S(N)(=O)=O)cc1)C(=O)N2 [GW416981X]
Response given: 100

Challenge: Param item: COc1ccc2[nH]c3c4[nH]c5ccc(OC)cc5c4c4c(c3c2c1)C(=O)NC4=O [GW296115X]
Response given: 95

###

Test system: KIT(D816V)
Settings: Compound Concentration (nM):1000
Quick reference for Percent Control among some compounds
Give the value, in units of %, as a plain number.

Record excerpt, results attached:
• Cl.O=C(Nc1ccc(Oc2ccc3[nH]c(NC(=O)c4ccco4)nc3c2)cc1)Nc1cc(C(F)(F)F)ccc1F [GW683134A] = 48
• CCn1c(-c2nonc2N)nc2c(C#CC(C)(C)O)nc(OCCNC)cc21.Cl = 13
• COc1cc2ncn(-c3cc(O[C@H](C)c4ccccc4Cl)c(C(N)=O)s3)c2cc1OC [GSK237701A] = 14
• NS(=O)(=O)c1ccc(N/N=C2\C(=O)Nc3ccc(Cl)cc32)cc1 [GW280670X] = 100
• Cl.O=S1CCN(Cc2ccc(-c3ccc4ncnc(Nc5ccc(OCc6ccccc6)c(F)c5)c4c3)o2)CC1 [GW576924A] = 100

Challenge: Quick one: Percent Control for Cl.O=C(O[C@H]1CN[C@H](C#Cc2cc3ncnc(Nc4ccc5c(cnn5Cc5ccccc5)c4)c3s2)C1)N1CCOCC1 [GSK200398A] ?
Response given: 100

Challenge: Param item: COc1cc(C=NNc2ncnc3c2cnn3-c2ccccc2)ccc1O [GW513184X]
Response given: 40

Challenge: Param item: COc1ccc(COc2ccc(Cc3cnc(N)nc3N)cc2OC)cc1 [GW632580X]
Response given: 96

Challenge: Param item: COc1cc2ncnc(Nc3ccc4c(cnn4Cc4ccccc4)c3)c2cc1OC.Cl [GW282449A]
Response given: 100

Challenge: Param item: CN(C)CCNC(=O)Nc1ccc(N(C)c2ccnc(Nc3ccc(CS(C)(=O)=O)cc3)n2)cc1.Cl [GW830900A]
Response given: 52

Challenge: Param item: COc1ccccc1-c1cc(/C=C2\C(=O)Nc3ncc(Br)cc32)cc(Br)c1O [GW442130X]
Response given: 100
